# measured-target: P2X7 (Homo sapiens, UniProt Q99572)
# Construct: endogenous in cells; host or cells: THP-1 human monocytic cell line
# method: THP-1 YoPro uptake assay (BzATP-stimulated Yo-Pro-1 uptake)
# Type: cell-based
# protocol-conditions: Table F-10, THP-1 cells, read-out: mean pIC50 values for P2X7 antagonism (converted)
measured-endpoint: log10 of IC50 (log10 of the value in nM)

CC(C)Nc1ccc2c(C(=O)NCC(c3cnc(C(F)(F)F)nc3)N3CCC(F)(F)CC3)c(Cl)ccc2n1 (centres unmarked) = 0.58
O=C(NCC(c1cnc(C(F)(F)F)nc1)N1CCC(F)(F)CC1)c1c(Cl)ccc2nc(N3CCC4(CCCN4)C3)ccc12 (centres unmarked) = 0.48
CC(C)Nc1ccc2c(C(=O)NCC(c3cnc(C(F)(F)F)nc3)N3CCOCC3)c(Cl)ccc2n1 (centres unmarked) = 0.82
N[C@@H]1CCCN(c2ccc3c(C(=O)NCC(c4cnc(C(F)(F)F)nc4)N4CCC(F)(F)CC4)c(Cl)ccc3n2)C1 (some centres unmarked) = 0.05
O=C(O)CCCNc1ccc2c(C(=O)NCC(c3cnc(C(F)(F)F)nc3)N3CCOCC3)c(Cl)ccc2n1 (centres unmarked) = 2.58
O=C(NCC(c1cnc(C(F)(F)F)nc1)N1CCOCC1)c1c(Cl)ccc2nc(N3CC4CCNC4C3)ccc12 (centres unmarked) = 0.69
C[C@@H]1CN(c2ccc3c(C(=O)NCC(c4cnc(C(F)(F)F)nc4)N4CCOCC4)c(Cl)ccc3n2)C[C@H](C)O1 (some centres unmarked) = 1.57
NC1CN(c2ccc3c(C(=O)NCC(c4cnc(C(F)(F)F)nc4)N4CCOCC4)c(Cl)ccc3n2)C1 (centres unmarked) = 0.73
CCN1CCN(c2ccc3c(C(=O)NCC(c4cnc(C(F)(F)F)nc4)N4CCC(F)(F)CC4)c(Cl)ccc3n2)CC1 (centres unmarked) = 0.51
O=C(NCC(c1cnc(C(F)(F)F)nc1)N1CCOCC1)c1c(Cl)ccc2nc(NCCCO)ccc12 (centres unmarked) = 1.35
NCC1CCN(c2ccc3c(C(=O)NCC(c4cnc(C(F)(F)F)nc4)N4CCOCC4)c(Cl)ccc3n2)CC1 (centres unmarked) = 1.14
O=C(NCC(c1cnc(C(F)(F)F)nc1)N1CCC(F)(F)CC1)c1c(Cl)ccc2nc(NCCO)ccc12 (centres unmarked) = 0.87
O=C(NCC(c1cnc(C(F)(F)F)nc1)N1CCOCC1)c1c(Cl)ccc2nc(N3CCC(O)CC3)ccc12 (centres unmarked) = 1.29
O=C(NCC(c1cnc(C(F)(F)F)nc1)N1CCC(F)(F)CC1)c1c(Cl)ccc2nc(N3CC(O)C3)ccc12 (centres unmarked) = 0.89

###

melting point listing for selected molecules.
measured-endpoint: melting point (°C)

O=C(NCC(c1cnc(C(F)(F)F)nc1)N1CCC(F)(F)CC1)c1cccc2nc(N3CCNCC3)ccc12 (stereo not shown) = 202.9
O=C(NCC(c1ccc(Cl)nc1)N1CCC(F)(F)CC1)c1cccc2ncccc12 (stereo not shown) = 187.3
O=C(NCC(c1cnc(C(F)(F)F)nc1)N1CCOCC1)c1cccc2nc(N3CCNCC3)ccc12 (stereo not shown) = 234.3
O=C(NCC(c1ccc(C(F)(F)F)nc1)N1CCNCC1)c1cccc2ncccc12 (stereo not shown) = 198
CC1CN(c2ccc3c(C(=O)NCC(c4cnc(C(F)(F)F)nc4)N4CCC(F)(F)CC4)cccc3n2)CC(C)O1 (stereo not shown) = 191.5
CC(C)(C)OC(=O)N1CCN(c2ccc3c(C(=O)NCC(c4cnc(C(F)(F)F)nc4)N4CCCC(F)(F)C4)cccc3n2)CC1 (stereo not shown) = 159.7

###

# measured-target: hP2X7 (Homo sapiens, UniProt Q99572)
# Construct: expressed in transfected cells; host or cells: 1321N1 astrocytoma cells
# Sequence (Q99572 1-595): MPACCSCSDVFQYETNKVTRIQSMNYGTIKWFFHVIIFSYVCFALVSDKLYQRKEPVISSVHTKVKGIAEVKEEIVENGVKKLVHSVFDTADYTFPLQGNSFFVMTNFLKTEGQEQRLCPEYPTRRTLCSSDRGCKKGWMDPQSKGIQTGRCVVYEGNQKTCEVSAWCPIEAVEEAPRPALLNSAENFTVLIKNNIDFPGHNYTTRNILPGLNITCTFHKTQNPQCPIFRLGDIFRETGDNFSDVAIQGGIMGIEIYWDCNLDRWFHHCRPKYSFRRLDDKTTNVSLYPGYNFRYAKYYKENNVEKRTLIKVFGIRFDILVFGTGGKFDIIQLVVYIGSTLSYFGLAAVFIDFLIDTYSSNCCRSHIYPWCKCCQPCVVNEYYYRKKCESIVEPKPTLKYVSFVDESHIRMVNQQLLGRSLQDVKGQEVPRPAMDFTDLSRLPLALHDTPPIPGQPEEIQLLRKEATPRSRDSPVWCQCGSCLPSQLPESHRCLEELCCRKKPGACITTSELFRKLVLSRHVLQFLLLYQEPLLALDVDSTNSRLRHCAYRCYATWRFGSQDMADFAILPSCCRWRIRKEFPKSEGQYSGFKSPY
# method: P2X7 antagonism: ligand-induced Ca2+ flux in 1321N1 astrocytoma cells overexpressing hP2X7
# Assay type: cell-based
# protocol-conditions: pIC50 = -log(IC50), read-out: hP2RX7pIC50 (mean pIC50 values) (converted)
Threshold 90 nM. IC50 below it: t. IC50 at it or above: f.

CC(C)c1ncc(C(CNC(=O)c2cccc3nc(N4CCCC4)ccc23)N2CCOCC2)cn1 (stereo not shown) = f
CCC1CN(c2ccc3c(C(=O)NCC(c4cnc(C(F)(F)F)nc4)N4CCOCC4)cccc3n2)CCN1 (stereo not shown) = f
CC(C)OC1CCN(c2ccc3c(C(=O)NCC(c4cnc(C(F)(F)F)nc4)N4CCOCC4)cccc3n2)CC1 (stereo not shown) = t
CC(C)N1CCN(c2ccc3c(C(=O)NCC(c4cnc(OC5CCC5)nc4)N4CCC(F)(F)CC4)cccc3n2)CC1 (stereo not shown) = t
CC(C)c1ncc(C(CNC(=O)c2cccc3nc(N4CCCC4)ccc23)N2CCC(F)(F)CC2)cn1 (stereo not shown) = t
O=C(NCC(c1cnc(NC2CC2)nc1)N1CCC(F)(F)CC1)c1cccc2nc(NC3CC3)ccc12 (stereo not shown) = f

###

# measured-target: P2X7 (Homo sapiens, UniProt Q99572)
# Construct: endogenous in cells; host or cells: THP-1 human monocytic cell line
# method: THP-1 YoPro uptake assay (BzATP-stimulated Yo-Pro-1 uptake)
# Type: cell-based
# protocol-conditions: Table F-10, THP-1 cells, read-out: mean pIC50 values for P2X7 antagonism (converted)
Please map values of IC50 to classes as shown: low interval: < 4 nM; middle interval: ≥ 4 nM and < 8 nM; high interval: ≥ 8 nM

O=C(NCC(c1cnc(C(F)(F)F)nc1)N1CCC(F)(F)CC1)c1c(Cl)ccc2nc(N3CCC(c4n[nH]c(=O)[nH]4)CC3)ccc12 (centres unmarked) [Compound 515] = middle interval
O=C(NCC(c1cnc(C(F)(F)F)nc1)N1CCOCC1)c1c(Cl)ccc2nc(NC3CC3)ccc12 (centres unmarked) [Compound 501] = high interval
O=C(NCC(c1cnc(C(F)(F)F)nc1)N1CCC(F)(F)CC1)c1c(Cl)ccc2nc(N3CC(CO)C3)ccc12 (centres unmarked) [Compound 510] = low interval
O=C(NCC(c1cnc(C(F)(F)F)nc1)N1CCCCC1)c1c(Cl)ccc2nc(NCCO)ccc12 (centres unmarked) [Compound 547] = low interval
CN(C)CCNc1ccc2c(C(=O)NCC(c3cnc(C(F)(F)F)nc3)N3CCOCC3)c(Cl)ccc2n1 (centres unmarked) [Compound 412] = middle interval
O=C(NCC(c1cnc(C(F)(F)F)nc1)N1CCOCC1)c1c(Cl)ccc2nc(N3CCC4(CCCCN4)C3)ccc12 (centres unmarked) [Compound 520] = high interval
CC1(O)CCN(c2ccc3c(C(=O)NCC(c4cnc(C(F)(F)F)nc4)N4CCOCC4)c(Cl)ccc3n2)CC1 (centres unmarked) [Compound 516] = high interval
O=C(NCC(c1cnc(C(F)(F)F)nc1)N1CCC(F)(F)CC1)c1c(Cl)ccc2nc(N3CC[C@@H](O)C3)ccc12 (some centres unmarked) [Compound 484] = middle interval
O=C(NCC(c1cnc(C(F)(F)F)nc1)N1CCOCC1)c1c(Cl)ccc2nc(N3CCC4CNCC43)ccc12 (centres unmarked) [Compound 559] = low interval
CC(C)CN1CCN(c2ccc3c(C(=O)NCC(c4cnc(C(F)(F)F)nc4)N4CCOCC4)c(Cl)ccc3n2)CC1 (centres unmarked) [Compound 408] = middle interval
O=C(NCC(c1cnc(C(F)(F)F)nc1)N1CCOCC1)c1c(Cl)ccc2nc(N3CCCOCC3)ccc12 (centres unmarked) [Compound 459] = low interval
O=C(NCC(c1cnc(C(F)(F)F)nc1)N1CCC(F)(F)CC1)c1c(Cl)ccc2nc(NC3CC3)ccc12 (centres unmarked) [Compound 493] = high interval
CC(C)N1CCN(c2ccc3c(C(=O)NCC(c4cnc(C(F)(F)F)nc4)N4CCC(F)(F)CC4)c(Cl)ccc3n2)CC1 (centres unmarked) [Compound 427] = low interval
O=C(NCC(c1cnc(C(F)(F)F)nc1)N1CCOCC1)c1c(Cl)ccc2nc(NCC3CC3)ccc12 (centres unmarked) [Compound 497] = middle interval
